measurement-target: dsA2: HLA-A*02:01(Y84C/A139C) disulfide mutant heavy chain / β2m complex (Homo sapiens, UniProt P04439, A163C/D140Y/D185E/D98H/E176V/E277Q/G131W/G231S/I119V/I121R/I166T/I218V/L300P/L318F/N151K/N90K/P208A/P217A/Q86G/Q94H/R138H/R169H/T345S/Y108C)
Construct: made in house; host or cells: Escherichia coli (pET3a)
test: native mass spectrometry (nMS) of peptide binding to empty dsA2;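 further: native nano-electrospray MS on Q-Tof II in positive mode, dsA2 at 10 µM with peptide 50–200 µM, incubated ≥10 min on ice, argon collision gas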
test-parameters: Kd,high
Ends that are not written are not given here.
attribute-measured: Kd (µM)
Answers are plain numbers, in µM.

Some substances with recorded Kd:
{"substance": "NLVPMVA [NA7]", "units-of-measure": "µM", "Kd": 210}
{"substance": "PMVATV [PV6]", "units-of-measure": "µM", "Kd": 300}
{"substance": "VPMVATV [VV7]", "units-of-measure": "µM", "Kd": 180}

Next substance, please.
Given item NLVPMV [NV6] , the value recorded as its Kd is 380
